Where do these numbers come from? They come from ChEMBL document CHEMBL1629424.

# assay-procedure: Antioxidant activity against AAPH-induced lipid peroxidation assessed as inhibition of conjugated diene hydroperoxide production at 0.1 mM by UV spectrophotometry
# Type: functional
As shown below, each of these compounds has a reported inhibition value.

smiles-repr: CC1=C(/C=C/C(C)=C/C=C/C(C)=C/C(=O)NCCCNCCCCNCCCNC(=O)/C=C/c2c(C)oc3c(C)c4oc(=O)cc(C)c4cc23)C(C)(C)CCC1
value-measured: 45%

smiles-repr: CC1=C(/C=C/C(C)=C/C=C/C(C)=C/C(=O)NCCCCCCCCCCCCNC(=O)/C=C(C)/C=C/C=C(C)/C=C/C2=C(C)CCCC2(C)C)C(C)(C)CCC1
value-measured: 41%

smiles-repr: Cc1oc2c(C)c3oc(=O)cc(C)c3cc2c1/C=C/C(=O)O
value-measured: 73%

Name the reported inhibition value associated with the compound "COc1cc(C)c(/C=C/C(C)=C/C=C/C(C)=C/C(=O)NCCCNCCCCNCCCNC(=O)/C=C(C)/C=C/C=C(C)/C=C/c2c(C)cc(OC)c(C)c2C)c(C)c1C" 97%

Item "COc1ccc(/C=C/C(=O)NCCOCCOC(=O)/C=C/c2c(C)oc3c(C)c4oc(=O)cc(C)c4cc23)cc1OC" has what recorded inhibition? 98%

// lookup inhibition for "N[C@@H](Cc1ccc(O)c(O)c1)C(=O)NCCCNCCCCNCCCNC(=O)[C@@H](N)Cc1ccc(O)c(O)c1" 71%

Recorded inhibition for "NCCc1ccc(O)c(O)c1" , please? 43%

====

# assay-procedure: Cytotoxicity against RAMEC assessed as cell viability after 24 hrs by MTT assay
# assay-context: Rattus norvegicus
reported-endpoint: IC50

Below, 3 molecules whose answers are already recorded.
molecule: COc1ccc(/C=C/C(=O)NCCOCCOC(=O)/C=C/c2c(C)oc3c(C)c4oc(=O)cc(C)c4cc23)cc1OC
IC50: 12.9 µM
--
molecule: CC1=C(/C=C/C(C)=C/C=C/C(C)=C/C(=O)NCCCNCCCCNCCCNC(=O)/C=C(C)/C=C/C=C(C)/C=C/C2=C(C)CCCC2(C)C)C(C)(C)CCC1
IC50: 2.6 µM
--
molecule: COc1cc(C)c(/C=C/C(C)=C/C=C/C(C)=C/C(=O)O)c(C)c1C [ACITRETIN]
IC50: 14.6 µM

Which IC50 is listed for "COc1cc(C)c(/C=C/C(C)=C/C=C/C(C)=C/C(=O)NCCCNCCCCNCCCNC(=O)/C=C(C)/C=C/C=C(C)/C=C/c2c(C)cc(OC)c(C)c2C)c(C)c1C" ? 4.7 µM

What IC50 value was documented for this molecule, CC1=C(/C=C/C(C)=C/C=C/C(C)=C/C(=O)O)C(C)(C)CCC1 [TRETINOIN] ? 18.3 µM

====

# assay-procedure: Antioxidant activity of the compound assessed as reducing activity of DPPH at 0.1 mM after 60 mins
# Type: functional
# Design: scale not given: the % may be the effect or the level left
reported-endpoint: Activity (%)
Return type: number; implicit unit %.

Item under review: "O=C(CCc1ccc(O)c(O)c1)NCCCNCCCCNCCCNC(=O)CCc1ccc(O)c(O)c1" . Reported Activity? 100

Item under review: "CC1=C(/C=C/C(C)=C/C=C/C(C)=C/C(=O)NCCCNCCCCNCCCNC(=O)/C=C(C)/C=C/C=C(C)/C=C/C2=C(C)CCCC2(C)C)C(C)(C)CCC1" . Reported Activity? 5

Item "COc1cc(C)c(/C=C/C(C)=C/C=C/C(C)=C/C(=O)NCCCNCCCCNCCCNC(=O)/C=C(C)/C=C/C=C(C)/C=C/c2c(C)cc(OC)c(C)c2C)c(C)c1C" has what recorded Activity? 38

For the compound "N[C@@H](Cc1ccc(O)c(O)c1)C(=O)O" , what Activity is on record? 76

====

# assay-procedure: Inhibition of soybean lipoxygenase
# Set-up: species or system Glycine max
reported-endpoint: log10 of IC50 (log10 of the value in µM)
Units before log transform: µM; reported quantity: IC50; transform: log10.

smiles-repr: COc1ccc(/C=C/C(=O)NCCOCCOC(=O)/C=C/c2c(C)oc3c(C)c4oc(=O)cc(C)c4cc23)cc1OC
reported-endpoint: log10 of IC50
value-measured: 1.81

smiles-repr: COc1ccc(/C=C/C(=O)NCCCNCCCCNCCCNC(=O)/C=C/c2ccc(OC)c(OC)c2)cc1OC
reported-endpoint: log10 of IC50
value-measured: 1.79

smiles-repr: COc1ccc(/C=C/C(=O)NCCOCCOC(=O)/C=C/C(=O)n2cc(C(=O)Nc3ccccc3)c3ccccc32)cc1OC
reported-endpoint: log10 of IC50
value-measured: 1.53

smiles-repr: NCCc1ccc(O)c(O)c1
reported-endpoint: log10 of IC50
value-measured: 2.00

smiles-repr: Cc1oc2c(C)c3oc(=O)cc(C)c3cc2c1/C=C/C(=O)OC(C)(C)C
reported-endpoint: log10 of IC50
value-measured: 0.97

Value lookup for log10 of IC50; key = "O=C(O)/C=C/c1ccc(O)c(O)c1" 2.78

Need log10 of IC50, item "COc1cc(C)c(/C=C/C(C)=C/C=C/C(C)=C/C(=O)NCCCNCCCCNCCCNC(=O)/C=C/c2c(C)oc3c(C)c4oc(=O)cc(C)c4cc23)c(C)c1C" 1.62

For "O=C(O)/C=C/C(=O)n1cc(C(=O)Nc2ccccc2)c2ccccc21" , what is its reported log10 of IC50? 1.72

====

Listed next: entries and their corresponding Activity.
# assay-procedure: Antioxidant activity of the compound assessed as reducing activity of DPPH at 0.1 mM after 60 mins
# Type: functional
# Set-up: scale not given: the % may be the effect or the level left

smiles-repr: O=C1O[C@H]([C@@H](O)CO)C(O)=C1O
reported-endpoint: Activity
value-measured: 100%

smiles-repr: CCCCNC(=O)/C=C/c1c(C)oc2c(C)c3oc(=O)cc(C)c3cc12
reported-endpoint: Activity
value-measured: 8.4%

smiles-repr: O=C(O)CCc1ccc(O)c(O)c1
reported-endpoint: Activity
value-measured: 100%

Record request: Activity value, item "N[C@@H](Cc1ccc(O)c(O)c1)C(=O)NCCCNCCCCNCCCNC(=O)[C@@H](N)Cc1ccc(O)c(O)c1" 96%

Record request: Activity value, item "COc1ccc(/C=C/C(=O)NCCOCCOC(=O)/C=C/c2c(C)oc3c(C)c4oc(=O)cc(C)c4cc23)cc1OC" 15%

# query: Activity of entry "Cc1oc2c(C)c3oc(=O)cc(C)c3cc2c1/C=C/C(=O)OC(C)(C)C" 11%

What does the data say about its Activity? Entry: "Cc1oc2c(C)c3oc(=O)cc(C)c3cc2c1/C=C/C(=O)O" 11%

Given the molecule "NCCCNCCCCNCCCN" , what is its reported Activity? 4%
